EXPERIMENTAL SYSTEM: HLA-B*5301 (human)
PROTOCOL DETAILS: inhibition of 125I probe peptide, purified HLA
MEASUREMENT TYPE: pIC50
pIC50 is defined as minus the log10 of a concentration measured in mol/L.

Solved cases below.
INSERT INTO results (binder, readout_number) VALUES
  ('FPSAPPHRI [CEA.3.F1I9]', 6.59),
  ('FPGLSAGATI [CEA.680.F1, 10 AA]', 5.83),
  ('FPWQRLLLTI [CEA.13.F1I10]', 7.11);

GET /values?readout=pIC50&item= FPGVNLSL [CEA.428.F1] 7.02

Likewise for FPGLSAGI [CEA.680.F1I8] ? 6.48

Likewise for FPAYSGREI [CEA.92.F1] ? 6.18

Likewise for FPNNNGTI [CEA.646.F1] ? 5.03
